B1: INTS4 (parent)
chain: YSSGEFSSGRKWGDDAPKEEVDTG

Variants of: B1
Experiment: protein stability index of a GFP-peptide fusion (GPS, HEK-293T) (PSI 1-6); higher = more stable;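 further: lentivirally expressed fusions sorted by FACS into six bins by GFP to DsRed ratio, PSI derived from sequencing read proportions per bin multiplied by bin number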
Conditions: c terminus: a fixed tail appended
Readings of protein stability index for the listed variants

Consider the following illustrative entries.
Residue Change: G9C
Property Measured: protein stability index
Result: 1.75
--
Residue Change: G9S
Property Measured: protein stability index
Result: 2.63
--
Residue Change: S8A
Property Measured: protein stability index
Result: 2.75

[Q] Requested read-out: protein stability index. Entry: S7G
[A] 2.75

[Q] I would be grateful if you could share the reported protein stability index for E20Q .
[A] 2.6

Taken from the supplement of paper PMC10567573.
